Measured values drawn from ChEMBL document CHEMBL6092226 for this set.

biological target: Epidermal growth factor receptor (Homo sapiens, UniProt P00533, L858R); experiment: Reversible inhibition of EGFR L858R mutant (696 to 1022 residues) (unknown origin) extracted from baculovirus infected Sf9 insect cells in presence of ATP by HTRF assay
Sequence (P00533 25-1210 L858R limits assumed): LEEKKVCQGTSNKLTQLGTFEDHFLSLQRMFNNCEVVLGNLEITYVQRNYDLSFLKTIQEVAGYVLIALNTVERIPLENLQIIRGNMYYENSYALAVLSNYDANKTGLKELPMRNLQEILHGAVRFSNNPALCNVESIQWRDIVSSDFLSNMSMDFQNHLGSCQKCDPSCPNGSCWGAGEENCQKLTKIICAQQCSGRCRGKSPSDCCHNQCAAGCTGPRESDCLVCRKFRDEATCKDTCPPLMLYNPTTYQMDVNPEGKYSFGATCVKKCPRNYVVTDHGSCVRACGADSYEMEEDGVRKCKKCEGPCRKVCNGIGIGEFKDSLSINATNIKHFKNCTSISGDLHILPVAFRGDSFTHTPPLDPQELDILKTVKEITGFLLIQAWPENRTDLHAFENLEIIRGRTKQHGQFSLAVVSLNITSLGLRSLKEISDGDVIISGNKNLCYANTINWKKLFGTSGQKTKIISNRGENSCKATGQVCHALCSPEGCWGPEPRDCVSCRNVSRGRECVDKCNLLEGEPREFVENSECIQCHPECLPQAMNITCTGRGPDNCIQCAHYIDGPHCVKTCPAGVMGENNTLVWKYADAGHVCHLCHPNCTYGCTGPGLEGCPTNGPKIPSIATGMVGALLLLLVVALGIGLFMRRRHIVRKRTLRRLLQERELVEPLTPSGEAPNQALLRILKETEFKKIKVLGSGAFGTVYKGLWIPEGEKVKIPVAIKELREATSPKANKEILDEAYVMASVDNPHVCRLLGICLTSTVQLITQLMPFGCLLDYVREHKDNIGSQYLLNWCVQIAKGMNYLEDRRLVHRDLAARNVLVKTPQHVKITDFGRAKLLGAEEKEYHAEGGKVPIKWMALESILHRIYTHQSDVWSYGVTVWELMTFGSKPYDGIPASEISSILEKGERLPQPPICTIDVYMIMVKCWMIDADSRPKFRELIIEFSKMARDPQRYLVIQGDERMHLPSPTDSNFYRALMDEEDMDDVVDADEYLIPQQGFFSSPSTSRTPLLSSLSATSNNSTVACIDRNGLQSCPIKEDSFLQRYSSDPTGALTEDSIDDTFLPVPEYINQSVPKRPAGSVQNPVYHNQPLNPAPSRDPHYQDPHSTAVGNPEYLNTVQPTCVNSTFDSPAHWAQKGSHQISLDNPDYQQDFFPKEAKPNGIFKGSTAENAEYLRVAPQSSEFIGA
Reported Metric: IC50 (nM)

>>> meas_value("CSc1nc(-c2cccc(NC(=O)c3ccccc3CN3Cc4ccccc4C3=O)c2)c(-c2ccnc(NC(C)=O)c2)[nH]1")
120

* * *

target: Epidermal growth factor receptor (Homo sapiens); assay: Time-dependent irreversible inhibition of N-terminal GST-tagged wildtype human EGFR cytoplasmic domain (669 to 1210 residues) extracted from Sf21 insect cells assessed as apparent inactivation constant (Ki) incubated for 240 mins in presence of ATP by fluorescence based analysis; settings: read-out: Ki(app)
Reported Metric: Ki

>>> meas_value("C=CC(=O)Nc1ccc(OC)c(Nc2cc(-c3[nH]c(SC)nc3-c3cccc(NC(=O)c4cccc(O)c4CN4Cc5ccccc5C4=O)c3)ccn2)c1")
"1320 nM"
>>> meas_value("C=CC(=O)Nc1ccc(OC)c(Nc2cc(-c3[nH]c(SC)nc3-c3cccc(NC(=O)c4ccccc4CN4Cc5ccccc5C4=O)c3)ccn2)c1")
"814 nM"

* * *

Ki listing for selected compounds.
target: Epidermal growth factor receptor (Homo sapiens, UniProt P00533, L858R); test: Time-dependent irreversible inhibition of GST-tagged EGFR L858R mutant cytoplasmic domain (669 to 1210 residues) (unknown origin) assessed as apparent inactivation constant (Ki) incubated for 240 mins in presence of ATP by fluorescence based analysis; details: read-out: Ki(app)
Reported Metric: Ki (nM)

>>> meas_value("C=CC(=O)Nc1ccc(OC)c(Nc2cc(-c3[nH]c(SC)nc3-c3cccc(NC(=O)c4cccc(O)c4CN4Cc5ccccc5C4=O)c3)ccn2)c1")
276
>>> meas_value("C=CC(=O)Nc1ccc(OC)c(Nc2cc(-c3[nH]c(SC)nc3-c3cccc(NC(=O)c4ccccc4CN4Cc5ccccc5C4=O)c3)ccn2)c1")
234

* * *

tested on: BaF3; experiment: Antiproliferative activity against mouse BaF3 cells harboring EGFR exon 19del mutant incubated for 72 hrs by MTT assay; type: functional, cell-based; conditions: BaF3, 72 h
pEC50: −log10 of the molar value.
pEC50 listing for selected compounds.
Reported Metric: pEC50

>>> meas_value("C=CC(=O)Nc1ccc(OC)c(Nc2cc(-c3[nH]c(SC)nc3-c3cccc(NC(=O)c4c(F)cccc4CN4Cc5ccccc5C4=O)c3)ccn2)c1")
6.28
>>> meas_value("C=CC(=O)Nc1ccc(OC)c(Nc2cc(-c3[nH]c(CC)nc3-c3cccc(NC(=O)c4cccc(O)c4CN4Cc5ccccc5C4=O)c3)ccn2)c1")
5.82
>>> meas_value("C=CC(=O)Nc1ccc(OC)c(Nc2cc(-c3[nH]c(SC)nc3-c3cccc(NC(=O)c4ccccc4CN4Cc5ccccc5C4=O)c3)ccn2)c1")
5.85
>>> meas_value("C=CC(=O)Nc1ccc(OC)c(Nc2cc(-c3[nH]c(SC)nc3-c3cccc(NC(=O)c4cccc(O)c4CN4Cc5ccccc5C4=O)c3)ccn2)c1")
6.02
>>> meas_value("C=CC(=O)Nc1ccc(OC)c(Nc2cc(-c3[nH]c(SC)nc3-c3cccc(NC(=O)c4c(F)ccc(O)c4CN4Cc5ccccc5C4=O)c3)ccn2)c1")
5.85
>>> meas_value("CCC(=O)Nc1ccc(OC)c(Nc2cc(-c3[nH]c(SC)nc3-c3cccc(NC(=O)c4cccc(O)c4CN4Cc5ccccc5C4=O)c3)ccn2)c1")
5.74
>>> meas_value("CSc1nc(-c2cccc(NC(=O)c3cccc(O)c3CN3Cc4ccccc4C3=O)c2)c(-c2ccnc(Nc3ccccc3)c2)[nH]1")
5.40
